Where do the numbers come from? From patent US5624923A.

# reported inhibition at 1 µM; entries follow
TARGET OR TEST SYSTEM: V1 Receptor Subtype in Human Platelet (Homo sapiens)
Construct: tissue Hudson Valley Blood Services, Westchester Medical Center, Valhalla, N.Y; host or cells: human platelets (frozen platelet rich plasma)
Sequence (P37288 whole entry): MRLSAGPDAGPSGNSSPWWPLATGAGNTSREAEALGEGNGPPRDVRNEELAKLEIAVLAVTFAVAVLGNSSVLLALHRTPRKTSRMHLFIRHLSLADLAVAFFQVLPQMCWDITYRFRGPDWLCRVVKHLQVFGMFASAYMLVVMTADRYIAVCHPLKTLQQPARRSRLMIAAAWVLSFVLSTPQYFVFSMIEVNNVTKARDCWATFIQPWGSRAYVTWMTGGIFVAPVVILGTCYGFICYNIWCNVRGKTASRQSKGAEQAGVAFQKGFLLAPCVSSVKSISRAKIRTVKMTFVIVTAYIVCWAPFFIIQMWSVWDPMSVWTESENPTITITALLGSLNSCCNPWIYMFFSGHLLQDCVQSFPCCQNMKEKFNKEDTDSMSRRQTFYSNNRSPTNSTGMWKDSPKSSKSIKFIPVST
ASSAY PROCEDURE: Binding to Vasopressin V1 receptor subtype in Human Platelet Membranes
PARTICULARS: 1.5 h; 1 μM, human platelet
Just the number please, in %, no unit attached.

Use the examples below as a reference point.
In [3]: df
Out[3]:
                                        smi     recorded_metric  numeric_result
0  CSc1ccc(Cl)c(C(=O)Nc2ccc(C(=O)N3Cc4cccn4Cc4ccccc43)c(Cl)c2)c1  inhibition at 1 µM              77
1  COc1cc(NC(=O)c2ccccc2C)c(Cl)cc1C(=O)N1Cc2cccn2Cc2ccccc21  inhibition at 1 µM              35
2  COc1ccc(C(=O)Nc2ccc(C(=O)N3Cc4cccn4Cc4ccccc43)c(Cl)c2)c(Cl)c1OC  inhibition at 1 µM               9

Prompt line: Suppose we examine the compound COc1cc(C(=O)N2Cc3cccn3Cc3ccccc32)ccc1NC(=O)c1cc(C)ccc1C ; what inhibition at 1 µM value has been reported?
Response line: 100

* * *

TARGET OR TEST SYSTEM: Rat Hepatic V1 Receptors (Rattus norvegicus, UniProt P30560)
Construct: Rat liver plasma membranes expressing the vasopressin V1 receptor subtypes; from tissue; host or cells: rat liver plasma membranes
Sequence (P30560 whole entry): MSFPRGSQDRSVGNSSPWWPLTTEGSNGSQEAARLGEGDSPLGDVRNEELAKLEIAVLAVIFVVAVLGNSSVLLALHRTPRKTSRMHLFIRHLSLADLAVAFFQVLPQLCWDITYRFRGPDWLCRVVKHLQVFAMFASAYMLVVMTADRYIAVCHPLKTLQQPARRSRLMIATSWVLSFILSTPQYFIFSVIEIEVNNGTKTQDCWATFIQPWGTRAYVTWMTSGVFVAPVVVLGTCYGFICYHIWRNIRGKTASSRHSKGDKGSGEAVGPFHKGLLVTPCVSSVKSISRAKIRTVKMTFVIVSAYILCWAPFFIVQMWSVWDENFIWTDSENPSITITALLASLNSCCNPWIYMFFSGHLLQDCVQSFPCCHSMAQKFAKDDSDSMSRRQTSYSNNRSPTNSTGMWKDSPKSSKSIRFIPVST
ASSAY PROCEDURE: Binding Assay to Rat Hepatic V1 Receptors
PARTICULARS: rat liver membranes; read-out: V1 IC50
# reported pIC50; entries follow
Note on units: pIC50 is unitless, being -log10 of a concentration expressed in mol/L.

Prompt line: What pIC50 appears in the records for this compound with Rat Hepatic V1 Receptors (Rattus norvegicus, UniProt P30560)? Cc1ccccc1CC(=O)Nc1ccc(C(=O)N2Cc3cccn3Cc3ccccc32)cc1
Response line: 9.05

Prompt line: Thanks! And O=C(Nc1ccc(C(=O)N2Cc3cccn3Cc3ccccc32)cc1)C(Cl)c1ccccc1 (stereo not shown) ?
Response line: 7.27

Prompt line: Thanks! And O=C(Nc1ccc(C(=O)N2Cc3cccn3Cc3ccccc32)cc1)c1cccc(F)c1F ?
Response line: 7.01

Prompt line: Thanks! And O=C(Nc1ccc(C(=O)N2Cc3cccn3Cc3ccccc32)cc1)c1sccc1Cl ?
Response line: 7.08

* * *

# reported Average Change; entries follow
Tested on: Vasopressin V1
ASSAY PROCEDURE: Vasopressin V1 Antagonist Activity in Conscious Rats (vasopressin vasopressor response)
Assay type: in vivo, rat
Parameters: unit not given here
PARTICULARS: 20 mg/kg i.v., VAS 0.02 i.u./kg, 60 min, SHR

Use the examples below as a reference point.
>>> df
                                        smi  result
0  Cc1c(CC(=O)Nc2ccc(C(=O)N3Cc4cccn4Cc4ccccc43)cc2)sc2ccccc12    32.5
1     Cc1cc(C(=O)N2Cc3cccn3Cc3ccccc32)ccc1N    19.5
2  O=C(Nc1ccc(C(=O)N2Cc3cccn3Cc3ccccc32)cc1)c1sc2ccccc2c1Cl      37

Pending compound:
Prompt line: What Average Change appears in the records for this compound with Vasopressin V1? O=C(Nc1ccc(C(=O)N2Cc3cccn3Cc3ccccc32)cc1)c1ccc2[nH]ccc2c1
Response line: 40
